Recorded values, source patent US12037305B2.

Tested on: Human T-Cells
Assay: Proliferation assay of human T-cells (PHA-stimulated PBMC, BrdU ELISA)
Type: cell-based
Conditions: T-cell, PHA 20 μg/ml, 48 hours
METRIC NAME: IC50 (µM)

1) COc1cccc(-c2ccc(NC(=O)C3=C(C(=O)O)CCC3)c(F)c2)c1 | 4.1
